The origin of these recorded values is ChEMBL document CHEMBL1121519.

Assay: Lethal dose in mice(peroral administration)
Format: toxicity, organism-based
Conditions: mouse, in vivo, po
observation type: LD50

Dear colleague, I am looking for the recorded LD50 of the following molecule: Cc1cc(/N=C(\Nc2nccs2)NC2CCCCC2)c2ccccc2n1 [TIMEGADINE]
> 1000 mg/kg

====

Target: Cyclooxygenase (Bos taurus) (UniProt O62664+O62698)
Assay: Inhibition of prostaglandin synthetase in bovine seminal vesicle microsomes using Beckman liquid scintillation counter at 10 e-5 M
Settings: Microsome
Label rule, in plain words: inhibition of 20% and up is MET, under 20% is NOT MET.

Is inhibition at least 20%? Consider Cc1c(Cl)cccc1N/C(=N\C(C)(C)C)Nc1nccs1
NOT MET

Same for CC(C)(C)/N=C(\Nc1ccc2ccccc2c1)Nc1nccs1
NOT MET

Same for Cc1cc(N/C(=N/C2CCCCCCC2)Nc2nccs2)c2ccccc2n1
MET

Same for c1ccc2c(N/C(=N/C3CCCCC3)Nc3nccs3)ccnc2c1
MET

Same for Cc1cc(N/C(=N/CC2CCCCC2)Nc2nccs2)c2ccccc2n1
MET

Same for Cc1cc(N/C(=N/C2CCCCC2)Nc2nncs2)c2ccccc2n1
NOT MET

Same for CCOC(=O)c1csc(/N=C(\Nc2cc(C)nc3ccccc23)NC(C)(C)C)n1
MET

Same for CC(C)(C)/N=C(\Nc1ccccn1)Nc1nccs1
NOT MET

Same for Cc1cc(N/C(=N/C(C)(C)C)Nc2ccccc2)c2ccccc2n1
MET

Same for Cc1ccc2nccc(N/C(=N/C3CCCCC3)Nc3nccs3)c2c1
NOT MET

Same for Cc1cc(N/C(=N/C(C)(C)C)NCCO)c2ccccc2n1
NOT MET

Same for CCCCCCCCCCCCCCCCCC/N=C(\Nc1nccs1)Nc1cc(C)nc2ccccc12.Cl
NOT MET

Same for Cc1nc2ccccc2cc1N/C(=N\C(C)(C)C)Nc1nccs1
NOT MET

Same for CCC(C)(C)/N=C(/Nc1nccs1)Nc1cc(C)nc2ccccc12
MET

Same for Cc1csc(/N=C(\Nc2cc(C)nc3ccccc23)NC2CCCCC2)n1
MET

Same for Cc1ccc2cccc(N/C(=N\C(C)(C)C)Nc3nccs3)c2n1
NOT MET

Same for CC(C)(C)/N=C(/Nc1nccs1)Nc1nccc2ccccc12
NOT MET

Same for Cc1nc2ccccc2c(N/C(=N/C2CCCCC2)Nc2nccs2)c1Cl
NOT MET

Same for Cc1cc(N/C(=N\C(C)(C)CC(C)(C)C)Nc2nccs2)c2ccccc2n1
MET

Same for Cc1ccc2nc(C)cc(N/C(=N/C3CCCCC3)Nc3nccs3)c2c1
NOT MET

Same for Cc1cc(NC(=N)NC(C)(C)C)c2ccccc2n1
NOT MET

Same for Cc1cc(N/C(=N/C2CCCCC2)Nc2nc(C)c(C)s2)c2ccccc2n1
MET

Same for COc1ccc2nccc(N/C(=N/C(C)(C)C)Nc3nccs3)c2c1
NOT MET

====

Kindly supply the reported inhibition values for the records listed here.
Biological target: Cyclooxygenase (Bos taurus) (UniProt O62664+O62698)
Experiment: Inhibition of prostaglandin synthetase in bovine seminal vesicle microsomes using Beckman liquid scintillation counter at 10 e-5 M
Details: Microsome
The reply should be a number in %, with the unit left off.

For the record Cc1cc(N/C(=N/C2CCCCC2)Nc2nc3ccccc3s2)c2ccccc2n1 , what value of inhibition is listed for Cyclooxygenase (Bos taurus) (UniProt O62664+O62698)?
76.1

Same for CC(C)c1cc(N/C(=N/C2CCCCC2)Nc2nccs2)c2ccccc2n1
0

Same for CCCc1cc(N/C(=N/C(C)(C)C)Nc2nccs2)c2ccccc2n1
74.1

Same for CCOC(=O)c1csc(/N=C(\Nc2cc(C)nc3ccccc23)NC2CCCCC2)n1
89.8

Same for Cc1cc(N/C(=N/C2CCCCCC2)Nc2nccs2)c2ccccc2n1
34.8

Same for CC(C)(C)/N=C(\Nc1nccs1)Nc1ccnc2ccccc12
23.8

Same for Cc1cc(N/C(=N/C2CCCCC2)Nc2c(C)noc2C)c2ccccc2n1
19.3

Same for Cc1cc(N/C(=N/C2(C)CCCC2)Nc2nccs2)c2ccccc2n1
100

Same for CC(C)(C)/N=C(\Nc1ccccc1)Nc1nccs1
6.4

Same for Cc1cc(N/C(=N/c2ccccc2)Nc2nccs2)c2ccccc2n1
83.8

Same for c1ccc(-c2cc(N/C(=N/C3CCCCC3)Nc3nccs3)c3ccccc3n2)cc1
14

====

Molecular target: Cyclooxygenase (Bos taurus) (UniProt O62664+O62698)
Assay: Inhibition of prostaglandin synthetase in bovine seminal vesicle microsomes using Beckman liquid scintillation counter at 10 e-5 M
Details: Microsome
Label rule, in plain words: inhibition of 30% and up is Met, under 30% is Not met.

Is inhibition at least 30%? Consider Cc1csc(/N=C(\Nc2cc(C)nc3ccccc23)NC(C)(C)C)n1
Met

Same for CC(C)(C)/N=C(\Nc1cnc2ccccc2c1)Nc1nccs1
Not met

Same for CC(C)(C)/N=C(\N)Nc1nccs1.O=C(O)/C=C\C(=O)O
Not met

Same for Cc1ccc2nc(C)cc(N/C(=N/C(C)(C)C)Nc3nccs3)c2c1
Not met

Same for CC(C)(C)/N=C(\Nc1ccc(Cl)cn1)Nc1nccs1
Not met

====

Assay: Lethal dose in rats(peroral administration)
Format: toxicity, organism-based
Settings: rat, in vivo, po
observation type: LD50
Give me the value, and tack the unit on after it.

Dear colleague, I am looking for the recorded LD50 of the following compound: Cc1cc(/N=C(\Nc2nccs2)NC2CCCCC2)c2ccccc2n1 [TIMEGADINE]
1220 mg/kg

====

Target: Cyclooxygenase (Bos taurus) (UniProt O62664+O62698)
Test: Inhibition of prostaglandin synthetase in bovine seminal vesicle microsomes using Beckman liquid scintillation counter at 10 e-5 M
Conditions: Microsome
Kindly supply the reported inhibition values for the records listed here.
The reply should be a number in %, with the unit left off.

Dear colleague, I am looking for the recorded inhibition of the following molecule: Cc1cc(N/C(=N/CC(C)C)Nc2nccs2)c2ccccc2n1
18

Same for Cc1cc(N/C(=N/C2CCCCC2)Nc2ncc(C(=O)O)s2)c2ccccc2n1
8.4

Same for CCc1cc(N/C(=N/C2CCCCC2)Nc2nccs2)c2ccccc2n1
67

Same for CC(C)c1cc(N/C(=N/C(C)(C)C)Nc2nccs2)c2ccccc2n1
12.4

Same for CCOC(=O)c1cnc(/N=C(\Nc2cc(C)nc3ccccc23)NC2CCCCC2)s1
15.6

Same for Cc1cc(N/C(=N/C(C)(C)C)Nc2nc3ccccc3s2)c2ccccc2n1
51.8

Same for CCCC/N=C(/Nc1nccs1)Nc1cc(C)nc2ccccc12
0.6

Same for Cc1cc(N/C(=N/C2CCCCC2)Nc2ccccn2)c2ccccc2n1
0.4

Same for CCCCC(CC)C/N=C(/Nc1nccs1)Nc1cc(C)nc2ccccc12 (centres undefined)
2.1

Same for Cc1cc(N/C(=N\C2CC2)Nc2nccs2)c2ccccc2n1
15.8

Same for CCC(C)(C)/N=C(\Nc1cccnc1)Nc1nccs1
0

Same for Cc1cc(N/C(=N/C(C)(C)C)Nc2nnc(S)s2)c2ccccc2n1
6

Same for Cc1cc(/N=C(\Nc2cc(C)nc3ccccc23)NC2CCCCC2)sn1
83.2

Same for Cc1cc(N/C(=N/C2CCCC(C)C2C)Nc2nccs2)c2ccccc2n1.Cl (centres undefined)
7

Same for CC(C)(C)/N=C(\Nc1nccs1)Nc1ccnc2cc(Cl)ccc12
5.5

Same for COc1cc(N/C(=N\C(C)(C)C)Nc2nccs2)c2ncccc2c1
5

Same for Cc1cc(N/C(=N\C(C)(C)C)Nc2nccs2)ccn1
14.9

Same for Clc1ccc2c(N/C(=N/C3CCCCC3)Nc3nccs3)ccnc2c1
21.6

Same for CC(C)CC(C)(C)/N=C(\Nc1ccncc1)Nc1nccs1
1.1

Same for Cc1cc(N/C(=N\C(C)CCCC(C)C)Nc2nccs2)c2ccccc2n1 (centres undefined)
1.7

Same for Cc1cc(N/C(=N/C2CCC(C)CC2)Nc2nccs2)c2ccccc2n1 (centres undefined)
12.6

Same for Cc1cc(N/C(=N/C2CCCCC2)Nc2nc(C(=O)O)cs2)c2ccccc2n1
2.9

Same for Cc1cc(N/C(=N/C2CCCCC2)Nc2ccccc2)c2ccccc2n1
10

Same for Cc1cc(N/C(=N/C2CCCCC2)Nc2nc3ccccc3[nH]2)c2ccccc2n1
7.2

Same for CCC(C)(C)/N=C(\Nc1ncccn1)Nc1nccs1
27.5

Same for Cc1cc(N/C(=N\CC(C)(C)C)Nc2nccs2)c2ccccc2n1
31.1

Same for CC(C)(C)/N=C(/Nc1nccs1)Nc1cccc2cccnc12
4.3

Same for CC(C)(C)/N=C(\Nc1nccs1)Nc1cc(C(F)(F)F)nc2ccccc12
75.4

Same for Cc1cc(N/C(=N/C2CCCCC2)Nc2nnc(C)s2)c2ccccc2n1
36.2

Same for Cc1cc(N/C(=N/C(C)(C)C)Nc2ccccn2)c2ccccc2n1
30.1

Same for Cc1cc(N/C(=N/C(C)(C)C)Nc2cccs2)c2ccccc2n1
37.2

Same for CCCCCC/N=C(\Nc1nccs1)Nc1cc(C)nc2ccccc12
-23.8

Same for Cc1cc(N/C(=N\C(C)(C)C)Nc2nccs2)c2ccccc2n1
100

Same for Cc1cc(N/C(=N/c2ccccc2C)Nc2nccs2)c2ccccc2n1
14.8

Same for CC(C)(C)/N=C(/Nc1nccs1)Nc1cccc2ccccc12
6.9

Same for Cc1cc(N/C(=N/C2CCCCC2)Nc2nnc(S)s2)c2ccccc2n1
7

Same for Cc1cc(N/C(=N/C(C)(C)C)Nc2nc(C)c(C)s2)c2ccccc2n1
64.2

Same for CCC(C)/N=C(/Nc1nccs1)Nc1cc(C)nc2ccccc12 (centres undefined)
10.5

Same for Cc1cc(/N=C(\Nc2nccs2)NC2CCCCC2)c2ccccc2n1 [TIMEGADINE]
100

Same for CC(C)(C)/N=C(/Nc1nccs1)Nc1cccc2cnccc12
-8.8

Same for CC/N=C(/Nc1nccs1)Nc1cc(C)nc2ccccc12
8

Same for CC(C)Cc1cc(N/C(=N/C2CCCCC2)Nc2nccs2)c2ccccc2n1
11

Same for Cc1cc(N/C(=N/C23C[C@H]4C[C@@H](C2)C[C@@H](C3)C4)Nc2nccs2)c2ccccc2n1
32
